# Test system: 786-0 renal
# PROCEDURE_TEXT: NCI-60 one-dose screen, 48 h (100 = growth as untreated, 0 = no growth, -100 = all killed)
# TEST_CONDITIONS: 10 µM unless noted
The panel holds about 83,000 compounds, 20% with a hit somewhere; the sample as a whole holds those more often.
Threshold-based label: growth under 60% gives T, growth not under 60% gives F.

CCOC(=O)c1ccc(NC2=C(Cl)C(=O)c3nc(C)ccc3C2=O)cc1: T
N#C/C(=N\Nc1ccc(F)cc1)C(=O)Nc1cc(-c2ccccc2)nn1-c1ccccc1: T
O=C(CCCCCCNC(=O)C(O)(O)C(F)(F)F)Nc1ccc(Cl)cc1: T
Cc1nc(/N=C(N)/N=C(\N)c2cccc(Br)c2)sc1C: F
CN(C)c1ccc(-c2cc(-c3c[nH]c4ccccc34)nc(N)c2C#N)cc1: T
O=C(NCCNc1cc(-c2cn(-c3ccccc3)nc2-c2cccc(O)c2)ccn1)Nc1cc(C(F)(F)F)cc(C(F)(F)F)c1: F
O=C1c2ccccc2C23C(=C(c4cncnc4)c4ccccc42)CCCN13 (centres undefined): F
COc1ccc(/C=N/NC(=O)CSc2nc(-c3cnccn3)cc(-c3cccs3)c2C#N)cc1: T
COc1cc2cc(Oc3ccc(NC(=O)Nc4ccc(F)c(C(F)(F)F)c4)cc3)c(C)nc2cc1OCCN(C)C: F
